This collection of values is drawn from patent US20250297032A1.

# system: T1, human FAPα-His tag (Sino biological) (human, UniProt Q12884 26-760)
# T1 construct: Bought protein; also called human FAPα-His protein; not shown: His tag
# T1 sequence (looked up): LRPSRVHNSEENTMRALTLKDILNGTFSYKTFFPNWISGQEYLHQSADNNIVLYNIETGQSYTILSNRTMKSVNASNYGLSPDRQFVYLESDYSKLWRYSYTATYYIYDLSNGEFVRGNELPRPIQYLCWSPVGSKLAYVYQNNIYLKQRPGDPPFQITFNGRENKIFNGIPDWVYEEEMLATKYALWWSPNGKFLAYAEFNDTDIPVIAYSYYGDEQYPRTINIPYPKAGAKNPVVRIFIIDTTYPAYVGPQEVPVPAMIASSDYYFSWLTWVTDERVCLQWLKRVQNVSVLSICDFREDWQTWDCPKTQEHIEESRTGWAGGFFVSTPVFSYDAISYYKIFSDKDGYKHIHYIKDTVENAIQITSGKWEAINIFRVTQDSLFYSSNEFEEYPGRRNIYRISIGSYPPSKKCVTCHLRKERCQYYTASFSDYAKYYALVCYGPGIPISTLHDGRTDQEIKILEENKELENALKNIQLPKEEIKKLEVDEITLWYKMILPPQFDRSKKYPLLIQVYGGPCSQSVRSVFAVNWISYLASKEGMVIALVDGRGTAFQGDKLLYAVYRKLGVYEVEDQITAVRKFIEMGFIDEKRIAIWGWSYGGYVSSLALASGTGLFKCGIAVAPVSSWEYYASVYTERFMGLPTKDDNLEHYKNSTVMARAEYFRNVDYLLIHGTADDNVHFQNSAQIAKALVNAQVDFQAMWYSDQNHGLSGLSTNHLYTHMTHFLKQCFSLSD
# assay-overview: SPR (Biacore T200), mAb captured on Protein A chip, human FAPα-His as analyte
pKd: −log10 of the molar value.

>  <binder>
J59 (antibody, V domains shown, Tested as a mAb) VH: QVQLLESGGGVVQPGRSLRLSCAASGFTFSSYGMHWVRQAPGKGLEWVAVISYDGSNKYYADSVKGRFTISRDNSKNTLYLQMNSLRADDTAVYYCARESYTGLGSFLHWGQGTLVTVSA VL: NIQLTQSPSSLSASVGDRVTITCRASQTISNYLNWYQQKPGKAPKLLISAASSLQGGVPSRFSGSGSGTDFTLAISSLQPEDSATYYCQYWGTFGQGTKLEIK

>  <pKd>
8.75

$$$$
>  <binder>
G14 (antibody, V domains shown, Full human antibody from a Fab phage library; Tested as a mAb (detected with anti-human IgG, captured on Protein A); also called FAP-G14; FAP-G14-Bio (biotin-conjugated form)) VH: QVQLLESGGGVVQPGRSLRLSCAASGFTFSSYAMHWVRQAPGKGLEWVAFISHDGNRNSYADSVRGRFTISRDNSKNTLYLQMNSLRAEDTAVYYCARDLGYYNGFSYWGQGTLVTVSA VL: DIVMTQSPSSVSASVGDRVTITCRASQGISSWLAWYQQKPGKAPKLLIYAASSLQSGVPSRFSGSGSGTDFTLTISSLQPEDFATYYCQQANSFPPTFGPGTKVDIK

>  <pKd>
9.28

$$$$
>  <binder>
G52 (antibody, V domains shown, Tested as a mAb; also called FAP-G52; FAP-G52-Bio (biotin-conjugated form)) VH: EVQLLESGGDLVQPGGSLRLSCAASGFTFSSYAMSWVRQAPGKGLEWVSGISNGGDSIAYADSVKGRFTVFRDNAKNTLYLQMNSLRAEDTAIYYCARGNYYAHDDWGQGTLVTVSA VL: DIQLTQSPSSVSASVGDRVTITCRASQGVGSWLAWYQQKPGKPPKLLIYAASSLQSGVPSRFSGSGSGTDFTLTISSLQPEDFATYYCQQANSFPLTFGGGTKVEIK

>  <pKd>
9.35

$$$$
